Known Z-AUC of a selection of molecules
# TEST_NAME: qHTS drug screen for cell cycle checkpoint inhibitors in PARPi-resistant BRCA-mutant ovarian cancer cell lines. (AID 1963452)
# REPORTED_CONDITIONS: PEO1/OlaR viability, CellTiter-Glo luminescence, 96 h; stronger effect = lower value
# Source text: Women's Malignancies Branch, Center for Cancer Research (CCR), National Cancer Institute (NCI), National Institutes of Health (NIH), Bethesda, MD Poly (ADP-ribose) polymerase inhibitors (PARPis) have changed the treatment paradigm in breast cancer gene (BRCA) - mutant high-grade serous ovarian carcinoma (HGSC). […] 6; Detection; Luminescence, PHERAstar (BMG Labtech) plate reader. […] 6. Luminescence readings were taken using PHERAstar (BMG Labtech). […]
MEASUREMENT_LABEL: Z-AUC

1. CC(=O)Oc1ccccc1C(=O)Nc1ncc([N+](=O)[O-])s1	0.99
2. COc1cc2ncnc(Nc3cccc(Cl)c3)c2cc1OC	0.0605
3. CCCN[C@H]1CCc2nc(N)sc2C1	-0.0876
4. CCC(=O)O[C@]1(C(=O)CCl)[C@@H](C)C[C@H]2[C@@H]3CCC4=CC(=O)C=C[C@]4(C)[C@@]3(F)[C@@H](O)C[C@@]21C	-0.206
5. CCOC(=O)c1ccc(C#Cc2ccc3c(c2)C(C)(C)CCS3)nc1	1.4
6. COc1ccc(C(=O)CC(=O)c2ccc(C(C)(C)C)cc2)cc1	1.49

====

# TEST_NAME: qHTS of pediatric cancer cell lines to identify multiple opportunities for drug repurposing: Primary screen for SK-N-SH cells (AID 1347098); also: nearly all actives have a fitted effect of over 65% in size
# REPORTED_CONDITIONS: SK-N-SH viability, CellTiter-Glo luminescence, 48 h; series mostly up to 57 µM
Records with an inconclusive call do not appear. Calls of active or inactive are those of the source. Calls follow the shape of the dose curve; as a rule, active = well fitted cell-killing curve with a large enough effect; inconclusive = small, poorly fitted or top-dose-only effect; inactive = no such curve, though single readings can be large or run the other way.
Possible outcomes: active, inactive

1. CC1=NN(c2ccccc2)C(=O)C1	inactive
2. COc1ncnc(NS(=O)(=O)c2ccc(N)cc2)c1OC	inactive
3. Nc1[nH]c(=O)ncc1F	inactive
4. NC(=O)N1c2ccccc2CC(=O)c2ccccc21	inactive
5. COc1cccc(N(C)C(=S)Oc2ccc3c(c2)CCCC3)n1	inactive
6. C[C@@H]1C[C@H]2[C@@H]3CCC4=CC(=O)C=C[C@]4(C)[C@@]3(Cl)[C@@H](O)C[C@]2(C)[C@@]1(OC(=O)c1ccco1)C(=O)CCl	active
7. COc1cc([C@@H]2c3cc4c(cc3[C@H](O)[C@H]3COC(=O)[C@H]23)OCO4)cc(OC)c1OC	inactive
8. COc1ccccc1OCC(O)COC(N)=O (centres undefined)	inactive
9. Cc1ncc([N+](=O)[O-])n1CCO	inactive
10. CS(=O)(=O)c1ccc([C@@H](O)[C@@H](CO)NC(=O)C(Cl)Cl)cc1	inactive
11. COc1ccc(-c2ccc3cc(C(=O)O)ccc3c2)cc1C12CC3CC(CC(C3)C1)C2	inactive
12. COc1cc2ncnc(Nc3cccc(Cl)c3)c2cc1OC	active
13. Cc1ccc(S(=O)(=O)N[C@@H](Cc2ccccc2)C(=O)CCl)cc1	active
14. CCCCOc1ccc(CC(=O)NO)cc1	active
15. C[C@@H](CN1CC(=O)NC(=O)C1)N1CC(=O)NC(=O)C1	inactive
16. O[C@@H](CNC[C@H](O)[C@H]1CCc2cc(F)ccc2O1)[C@@H]1CCc2cc(F)ccc2O1	active
17. O=S(=O)(O)CCS	inactive
18. N=C(N)c1ccc(OCCCCCOc2ccc(C(=N)N)cc2)cc1	active
19. CCN(CC)CC#CCOC(=O)C(O)(c1ccccc1)C1CCCCC1 (centres undefined)	inactive
20. CCc1c2c(nc3ccc(OC(=O)N4CCC(N5CCCCC5)CC4)cc13)-c1cc3c(c(=O)n1C2)COC(=O)[C@]3(O)CC	active
21. Nc1ccc(S(=O)(=O)Nc2ccccn2)cc1	inactive
22. Cn1c(=O)c2c(ncn2CC(O)CO)n(C)c1=O (centres undefined)	inactive
23. CC(C)NCC(O)c1ccc(NS(C)(=O)=O)cc1 (centres undefined)	inactive
24. CC(=O)CC(c1ccccc1)c1c(O)c2ccccc2oc1=O (centres undefined)	inactive

====

# TEST_NAME: Cell Viability - Renal Proximal Tubule (AID 545);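 also: cells exposed to compound for 40 hours; nearly all actives have a fitted effect of over 40% in size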
# REPORTED_CONDITIONS: renal proximal tubule cells viability, primary cells of rat origin; series mostly up to 91.7 µM
Results filed as inconclusive are left out. Calls of active or inactive are those of the source. Calls follow the shape of the dose curve; as a rule, active = well fitted cell-killing curve with a large enough effect; inconclusive = small, poorly fitted or top-dose-only effect; inactive = flat fitted curve, though single readings scatter.
Possible outcomes: true for active, false for inactive

1) CC(=O)Oc1ccccc1C(=O)Nc1ncc([N+](=O)[O-])s1	true
2) Cc1cc(NS(=O)(=O)c2ccc(N)cc2)no1	false
3) C[C@]12C=CC(=O)C=C1CC[C@@H]1[C@@H]2C(=O)C[C@@]2(C)[C@H]1CC[C@]2(O)C(=O)CO	false
4) NC(N)=NC(N)=NCCc1ccccc1	false
5) Cc1noc(NS(=O)(=O)c2ccc(N)cc2)c1C	false
6) CC[C@H](C)C(=O)O[C@H]1C[C@@H](C)C=C2C=C[C@H](C)[C@H](CC[C@@H]3C[C@@H](O)CC(=O)O3)[C@H]21	true
7) CN(C)c1ccc(C(=C2C=CC(=[N+](C)C)C=C2)c2ccc(N(C)C)cc2)cc1	true
8) COc1ccc2cc3[n+](cc2c1OC)CCc1cc2c(cc1-3)OCO2	false
9) O=C(O)c1cc(=O)[nH]c(=O)[nH]1	false
10) Cc1nnc(NS(=O)(=O)c2ccc(N)cc2)s1	false
11) CCc1cc(C(N)=S)ccn1	false
12) Cc1ncc([N+](=O)[O-])n1CCO	false

====

# TEST_NAME: High-throughput drug toxicity screening in the BPDCN cell line Cal-1 (AID 1224825);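 also: cells exposed to compounds for 48 h; 100% = DMSO and 0% = bortezomib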
# REPORTED_CONDITIONS: Cal-1 BPDCN cell viability, qHTS; at 45.8 µM (top of the series) unless noted
Decision: viability (% of control) beneath 20% gives Y; viability (% of control) meeting or exceeding 20% gives N.

1. CC(=O)CC(c1ccccc1)c1c(O)c2ccccc2oc1=O (stereo unspecified)	N
2. CC1=CC(=O)c2ccccc2C1=O	Y
3. CCCc1nc(C)c2c(=O)[nH]c(-c3cc(S(=O)(=O)N4CCN(CC)CC4)ccc3OCC)nn12	Y
4. CN(C)CCc1c[nH]c2ccc(C[C@H]3COC(=O)N3)cc12	N
5. COc1cnc(NS(=O)(=O)c2ccc(N)cc2)nc1	N
6. CC(C)C1CCC(C(=O)N[C@H](Cc2ccccc2)C(=O)O)CC1 (stereo partly specified)	N
7. CNS(=O)(=O)CCc1ccc2[nH]cc(C3CCN(C)CC3)c2c1	N
8. COc1ncnc(NS(=O)(=O)c2ccc(N)cc2)c1OC	N
9. CC1CC2C3CCC4=CC(=O)C=C[C@]4(C)[C@@]3(F)[C@@H](O)C[C@]2(C)[C@@]1(O)C(=O)CO (stereo partly specified)	N
10. N[C@@H](Cc1ccc(O)c(O)c1)C(=O)O	N
11. CN1CCN(c2c(F)cc3c(=O)c(C(=O)O)cn(CCF)c3c2F)CC1	N

====

# TEST_NAME: Quantitative High-Throughput drug screen in 47 multiple myeloma cell lines against the NCATS MIPE library collection: KMM1_JCRB cell viability assay (AID 1918960); also: nearly all actives have a fitted effect of over 30% in size
# REPORTED_CONDITIONS: KMM1 myeloma viability, CellTiter-Glo ATP luminescence, 48 h; series mostly up to 45.8 µM
Inconclusive results are not listed. Activity calls are given as the source filed them. The call rests on the fitted dose curve; in most records, active means well fitted cell-killing curve with a large enough effect; inconclusive means small, poorly fitted or top-dose-only effect, or effect the other way; inactive means no such curve, though single readings can be large or run the other way.
Possible outcomes: active, inactive

1) COc1cc2nc(N3CCCN(C)CC3)nc(NC3CCN(Cc4ccccc4)CC3)c2cc1OC	active
2) CC(=O)[C@H]1CC[C@H]2[C@@H]3CC=C4C[C@@H](O)CC[C@]4(C)[C@H]3CC[C@]12C	inactive
3) Cc1noc(NS(=O)(=O)c2ccc(N)cc2)c1C	inactive
4) CC(C)C[C@H](NC(=O)[C@H](CCc1ccccc1)NC(=O)CN1CCOCC1)C(=O)N[C@@H](Cc1ccccc1)C(=O)N[C@@H](CC(C)C)C(=O)[C@@]1(C)CO1	active

====

Listing: parasite growth remaining, % of DMSO control (lower = more inhibition) of selected molecules
# TEST_NAME: qHTS profiling of the MIPE4 collection as inhibitors of Plasmodium falciparum (DD2) proliferation (AID 743345)
# REPORTED_CONDITIONS: P. falciparum Dd2 in erythrocytes, SYBR Green DNA, 72 h; at 28.5 µM (top of the series) unless noted
MEASUREMENT_LABEL: parasite growth remaining, % of DMSO control (lower = more inhibition) (%)

1) COC(=O)Nc1nc2ccc(C(=O)c3ccccc3)cc2[nH]1	97.7
2) COc1cc(NCc2ccc3nc(N)nc(N)c3c2C)cc(OC)c1OC	7.41
3) CC(C)(C)NC(=O)[C@H]1CC[C@H]2[C@@H]3CC[C@H]4NC(=O)C=C[C@]4(C)[C@H]3CC[C@]12C	91.7
4) CN1CCN(c2c(F)cc3c(=O)c(C(=O)O)cn(CCF)c3c2F)CC1	95.4
5) C[C@@H](CN1CC(=O)NC(=O)C1)N1CC(=O)NC(=O)C1	88.1
6) CNNCc1ccc(C(=O)NC(C)C)cc1	93.3
